- MEASURED TARGET: human TTK (Homo sapiens, UniProt P33981)
- Construct: Active TTK was purchased from Invitrogen as an amino terminal GST fusion of full length human TTK; purchased Invitrogen
- Sequence (P33981 whole entry, the tested form may be a part): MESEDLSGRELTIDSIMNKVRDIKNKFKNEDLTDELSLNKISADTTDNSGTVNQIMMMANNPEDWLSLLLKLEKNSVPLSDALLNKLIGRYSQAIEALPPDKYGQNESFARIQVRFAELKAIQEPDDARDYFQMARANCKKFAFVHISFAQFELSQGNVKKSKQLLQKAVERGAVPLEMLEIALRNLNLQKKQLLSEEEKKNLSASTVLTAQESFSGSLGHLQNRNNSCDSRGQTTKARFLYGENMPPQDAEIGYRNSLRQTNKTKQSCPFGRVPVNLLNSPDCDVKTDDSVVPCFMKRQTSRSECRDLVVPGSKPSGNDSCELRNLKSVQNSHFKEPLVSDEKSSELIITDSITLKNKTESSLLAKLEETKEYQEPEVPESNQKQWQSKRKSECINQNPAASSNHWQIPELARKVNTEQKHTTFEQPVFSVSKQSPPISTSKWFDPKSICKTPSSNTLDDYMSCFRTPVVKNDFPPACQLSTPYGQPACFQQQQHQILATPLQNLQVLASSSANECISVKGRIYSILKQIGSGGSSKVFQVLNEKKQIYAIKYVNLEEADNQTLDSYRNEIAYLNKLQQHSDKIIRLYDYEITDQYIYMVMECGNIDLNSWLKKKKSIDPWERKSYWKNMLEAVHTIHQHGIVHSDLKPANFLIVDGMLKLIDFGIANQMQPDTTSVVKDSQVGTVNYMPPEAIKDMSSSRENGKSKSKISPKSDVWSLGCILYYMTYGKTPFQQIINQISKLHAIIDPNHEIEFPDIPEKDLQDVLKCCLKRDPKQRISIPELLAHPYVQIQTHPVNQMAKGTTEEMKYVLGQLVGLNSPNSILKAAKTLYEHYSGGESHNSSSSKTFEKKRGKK
- PROTOCOL TEXT: TTK inhibition assay (indirect ELISA)
- Assay type: biochemical
- CONDITIONS USED: 100 μM ATP; read-out: TTK IC50 Range
pIC50: −log10 of the molar value.
# pIC50 per record follows
READOUT KIND: pIC50

Cc1cc(-c2cnn3c(NCC4CCOCC4)cc(N[C@H]4CCCC[C@H]4CO)nc23)ccc1C(=O)NC1CC1 [Example C131]; > 7.00
Cc1cc(-c2cnn3c(NCCN(C)C)cc(Oc4cccc(F)c4)nc23)ccc1C(=O)NC1CC1 [Example C187]; > 7.00
Cc1cc(-c2cnn3c(NC[C@H]4CC[C@@H](O)CC4)cc(Oc4cccnc4)nc23)ccc1C(=O)NC1CC1 [Example C176]; > 7.00
Cc1cc(-c2cnn3c(NCC4CC4)cc(Oc4cccnc4)nc23)ccc1C(=O)NC1CC1 [Example C152]; > 7.00
COC(C)(C)CNc1cc(N[C@@H](C(C)C)C(C)(C)O)nc2c(-c3ccc(C(=O)NC4CC4)c(C)c3)cnn12 [Example C128]; > 7.00
Cc1cc(-c2cnn3c(NCC4(F)CCN(C)CC4)cc(NC4CCCC4)nc23)ccc1C(=O)NC1CC1 [Example C170]; > 7.00
Cc1cc(-c2cnn3c(NCCN4CCOCC4)cc(Oc4cccc(N(C)C)c4)nc23)ccc1C(=O)NC1CC1 [Example C96]; > 7.00
Cc1cc(-c2cnn3c(NCC4CCOCC4)cc(N4CCC[C@@H]4CO)nc23)ccc1C(=O)NC1CC1 [Example C164]; > 7.00
Cc1cc(-c2cnn3c(NCC4CCOCC4)cc(NCC4(CO)CC4)nc23)ccc1C(=O)NC1CC1 [Example C113]; > 7.00
Cc1cc(-c2cnn3c(NCCN4CCC(O)CC4)cc(Oc4cccc(F)c4)nc23)ccc1C(=O)NC1CC1 [Example C182]; > 7.00
Cc1cc(-c2cnn3c(NCCCS(C)(=O)=O)cc(NC4CCOCC4)nc23)ccc1C(=O)NC1CC1 [Example C140]; > 7.00
Cc1cc(-c2cnn3c(NC[C@H]4C[C@H](O)C4)cc(NC4CCCC4)nc23)ccc1C(=O)NC1CC1 [Example C172]; > 7.00
Cc1cc(-c2cnn3c(NCC4CCN(C)CC4)cc(Oc4cccc(F)c4)nc23)ccc1C(=O)NC1CC1 [Example C46]; > 7.00
Cc1cc(-c2cnn3c(NC[C@H]4CCCO4)cc(NC4CCOCC4)nc23)ccc1C(=O)NC1CC1 [Example C63]; > 7.00
Cc1cc(-c2cnn3c(NCC4CCOCC4)cc(N[C@@H]4CCCOC4)nc23)ccc1C(=O)NC1CC1 [Example C82]; > 7.00
Cc1cc(-c2cnn3c(NCC4CCOCC4)cc(N4CCOC[C@H]4CO)nc23)ccc1C(=O)NC1CC1 [Example C87]; > 7.00
Cc1cc(-c2cnn3c(NCC4CCOCC4)cc(N[C@@H](CO)C(C)C)nc23)ccc1C(=O)NC1CC1 [Example C121]; > 7.00
Cc1cc(-c2cnn3c(NCCN4CCCCC4)cc(Oc4cccc(F)c4)nc23)ccc1C(=O)NC1CC1 [Example C180]; > 7.00
Cc1cc(-c2cnn3c(NCC4CCOCC4)cc(N4CC[C@H](O)C4)nc23)ccc1C(=O)NC1CC1 [Example C143]; 6.30 to 7.00
Cc1cc(-c2cnn3c(NCC4CCOCC4)cc(NCC4CCOCC4)nc23)ccc1C(=O)NC1CC1 [Example C57]; > 7.00
Cc1cc(-c2cnn3c(NCC4CCOCC4)cc(N[C@H](CO)CC(C)C)nc23)ccc1C(=O)NC1CC1 [Example C130]; > 7.00
Cc1cc(-c2cnn3c(NCC4CC4)cc(NC4(CO)CCCC4)nc23)ccc1C(=O)NC1CC1 [Example C148]; > 7.00
Cc1cc(-c2cnn3c(NCC4CCOCC4)cc(N[C@H](CO)C4CCOCC4)nc23)ccc1C(=O)NC1CC1 [Example C89]; > 7.00
Cc1cc(-c2cnn3c(NCC4(F)CCNCC4)cc(OC4CCCC4)nc23)ccc1C(=O)NC1CC1 [Example C173]; > 7.00
Cc1cc(-c2cnn3c(NCc4ccncc4)cc(NC4CCOCC4)nc23)ccc1C(=O)NC1CC1 [Example C54]; > 7.00
Cc1cc(-c2cnn3c(NC[C@H]4C[C@@](C)(O)C4)cc(NC4CCCC4)nc23)ccc1C(=O)NC1CC1 [Example C44]; > 7.00
Cc1cc(-c2cnn3c(NCC4CCOCC4)cc(N[C@H]4CCCOC4)nc23)ccc1C(=O)NC1CC1 [Example C83]; > 7.00
Cc1cc(-c2cnn3c(NCC4CCOCC4)cc(NC4(CO)CC4)nc23)ccc1C(=O)NC1CC1 [Example C139]; > 7.00
CC[C@H](Nc1cc(NCCN2CCOCC2)n2ncc(-c3ccc(C(=O)NC4CC4)c(C)c3)c2n1)[C@H](C)O [Example C119]; > 7.00
